Test: Biodistribution of 177Lu-labeled αMSH analogues in mice bearing B16F10 mouse melanoma
Assay type: in vivo, C57BL/6J mice
Conditions: mouse, stomach, iv, total radioactivity; 1 h p.i., C57BL/6J mice, B16F10 melanoma; read-out: Biodistribution, Stomach
Below: a set of entries, each annotated with reported tissue uptake at 1 h.
Write the value in %ID/g as a bare number.

Worked examples, 2 molecules total:
CCCC[C@H](NC(=O)CN1CCC(NC(=O)CN2CCN(CC(=O)O)CCN(CC(=O)O)CCN(CC(=O)O)CC2)CC1)C(=O)N[C@H]1CC(=O)NCCCC[C@@H](C(N)=O)N(C)C(=O)[C@H](Cc2c[nH]c3ccccc23)N(C)C(=O)[C@H](CCCNC(=N)N)N(C)C(=O)[C@@H](Cc2ccccc2)NC(=O)[C@H](Cc2c[nH]cn2)N(C)C1=O [^177Lu-labeled CCZ01099, metal not drawn]	0.13
CCCC[C@H](NC(=O)CN1CCC(NC(=O)[C@H](CCCCNC(=O)CN2CCN(CC(=O)O)CCN(CC(=O)O)CCN(CC(=O)O)CC2)NC(=O)[C@H](CCC(=O)O)NC(=O)CCCc2ccc(I)cc2)CC1)C(=O)N[C@H]1CC(=O)NCCCC[C@@H](C(N)=O)NC(=O)[C@H](Cc2c[nH]c3ccccc23)NC(=O)[C@H](CCCNC(=N)N)NC(=O)[C@@H](Cc2ccccc2)NC(=O)[C@H](Cc2c[nH]cn2)NC1=O [^177Lu-labeled CCZ01082, metal not drawn]	0.89

Which tissue uptake at 1 h is reported for this molecule? CCCC[C@H](NC(=O)CN1CCC(NC(=O)CN2CCN(CC(=O)O)CCN(CC(=O)O)CCN(CC(=O)O)CC2)CC1)C(=O)N[C@H]1CC(=O)NCCCC[C@@H](C(N)=O)N(C)C(=O)[C@H](Cc2c[nH]c3ccccc23)NC(=O)[C@H](CCCNC(=N)N)N(C)C(=O)[C@@H](Cc2ccccc2)NC(=O)[C@H](Cc2c[nH]cn2)NC1=O [^177Lu-labeled CCZ01106, metal not drawn] 0.36

Which tissue uptake at 1 h is reported for this molecule? CCCC[C@H](NC(=O)CN1CCC(NC(=O)CN2CCN(CC(=O)O)CCN(CC(=O)O)CCN(CC(=O)O)CC2)CC1)C(=O)N[C@H]1CC(=O)NCCCC[C@@H](C(N)=O)NC(=O)[C@H](Cc2c[nH]c3ccccc23)NC(=O)[C@H](CCCNC(=N)N)NC(=O)[C@@H](Cc2ccccc2)NC(=O)[C@H](Cc2c[nH]cn2)NC1=O [^177Lu-labeled CCZ01048, metal not drawn, reference compound] 0.59

Which tissue uptake at 1 h is reported for this molecule? CCCC[C@H](NC(=O)CN1CCC(NC(=O)[C@H](CCCCNC(=O)CN2CCN(CC(=O)O)CCN(CC(=O)O)CCN(CC(=O)O)CC2)NC(=O)[C@H](CCC(=O)O)NC(=O)CCCc2ccc(I)cc2)CC1)C(=O)N[C@H]1CC(=O)NCCCC[C@@H](C(N)=O)N(C)C(=O)[C@H](Cc2c[nH]c3ccccc23)N(C)C(=O)[C@H](CCCNC(=N)N)N(C)C(=O)[C@@H](Cc2ccccc2)NC(=O)[C@H](Cc2c[nH]cn2)N(C)C1=O [^177Lu-labeled CCZ01088, metal not drawn] 1.2

Which tissue uptake at 1 h is reported for this molecule? CCCC[C@H](NC(=O)CN1CCC(NC(=O)[C@H](CCCCNC(=O)CN2CCN(CC(=O)O)CCN(CC(=O)O)CCN(CC(=O)O)CC2)NC(=O)[C@H](CCC(=O)O)NC(=O)CCCc2ccc(I)cc2)CC1)C(=O)N[C@H]1CC(=O)NCCCC[C@@H](C(N)=O)N(C)C(=O)[C@H](Cc2c[nH]c3ccccc23)NC(=O)[C@H](CCCNC(=N)N)N(C)C(=O)[C@@H](Cc2ccccc2)NC(=O)[C@H](Cc2c[nH]cn2)NC1=O [^177Lu-labeled CCZ01118, metal not drawn] 0.74
